Readings of Fold change for the listed substances
Tested on: E. coli BL21
Format: cell-based, Escherichia coli
experimental-conditions: Table 3; MIC compared to that of Api-137

Examples from the recorded data:
gu-ONNRPVYIPRPRPPHPRL-OH [Compound 15] = 4
gu-ONNRPVYIPRPRPPHPRL-OH [Compound 26] = 1
gu-ONNRPVYIPRPRPPHPRL-OH [Compound 23] = 2
gu-ONNRPVYIPRPRPPHPRL-OH [Compound 21] = 2–4
gu-ONNRPVYIPRPRPPHPRL-OH [Compound 22] = 2–4

Next up:
Hi! What's the reported Fold change for gu-ONNRPVYIPRPRPPHPRL-OH [Compound 18] on E. coli BL21? 4
